B1: tRNA (parent)
chain: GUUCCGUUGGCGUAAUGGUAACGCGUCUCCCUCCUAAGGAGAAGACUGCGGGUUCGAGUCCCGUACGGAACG

Variants of: B1
Experiment: yeast fitness relative to wild type (ratio to wild type); higher = fitter; tRNA-Arg(CCU), competitive growth, 37 C, YPD
Fewer inactive variants are shown than the library holds.
Exercise: for every item that follows, state its recorded yeast fitness.
Respond numerically, and do not add a unit to the figure.

Lookup: // yeast fitness lookup, key: A15C G17A C22U G23C G51A A70U
Found: 0.596

Lookup: One more variant: C4U U8C A36G G44C
Found: 0.676

Lookup: One more variant: G41C G44C C55A
Found: 0.563

Lookup: One more variant: U13C G48A
Found: 0.853

Lookup: One more variant: U2C C24A
Found: 0.574

Lookup: One more variant: C4G G17A A36U
Found: 0.691

Lookup: One more variant: C4A C46A G67A
Found: 0.73

Lookup: One more variant: U7C C33G U59C
Found: 0.59

Lookup: One more variant: A15C G18A
Found: 0.74

Lookup: One more variant: A42U A57C
Found: 0.681

Lookup: One more variant: C5U A36U A70U
Found: 0.628

Lookup: One more variant: C62G U64A
Found: 0.695

Lookup: One more variant: C5U C22U A37C C55A
Found: 0.538

Lookup: One more variant: U19C U53C
Found: 0.694

Lookup: One more variant: A15U C22U U54C
Found: 0.754

Lookup: One more variant: G25A A40U U54C
Found: 0.565

Lookup: One more variant: U16C U19A U47A C61A
Found: 0.792

Lookup: One more variant: C24A U26C U54A C60U A69C
Found: 0.819

Lookup: One more variant: A20U G50C
Found: 0.638

Lookup: One more variant: C11G A36U A42G A43C
Found: 0.527

Lookup: One more variant: U16C C29U G63A
Found: 0.527

Lookup: One more variant: U2C G48A
Found: 0.928

Lookup: One more variant: U8C C33U
Found: 0.728

Lookup: One more variant: G6A G18C C61G
Found: 0.563

Lookup: One more variant: A42U G48A
Found: 0.895

Lookup: One more variant: U3A A40U
Found: 0.841

Lookup: One more variant: C11G C33G A37U A45U
Found: 0.64

Lookup: One more variant: U13C C24G U26A C55G C66A
Found: 0.561

Lookup: One more variant: G23C C62G
Found: 0.692

Lookup: One more variant: A20C C22U C66U
Found: 0.622

Lookup: One more variant: A15U C66A
Found: 0.649

Lookup: One more variant: G18A A20G A69U
Found: 0.542

Lookup: One more variant: U47C A65C
Found: 1.04

Lookup: One more variant: C22A C60A C61G
Found: 0.565

Lookup: One more variant: C62U A65U G68C
Found: 0.602

Lookup: One more variant: G25A U47C C60U
Found: 0.587

Lookup: One more variant: C11G C46G A57U
Found: 0.624

Lookup: One more variant: C31A A57C
Found: 0.544

Lookup: One more variant: G9A G25C C30U A57G
Found: 0.526

Lookup: One more variant: U3A C4A U8C C29G A37C
Found: 0.581

Lookup: One more variant: C30U A70U
Found: 0.962

Lookup: One more variant: G6C A69C
Found: 0.852

Lookup: One more variant: A45C A57C
Found: 0.573

Lookup: One more variant: C11A C27A C29A A42C U47A G52A U59C
Found: 0.503
